All values here come from PubChem BioAssay.

test_summary: viability loss with induced miR-34 in A549 – imaging, A549 dox-inducible miR-34, nuclei and caspase counts, primary screen (AID 1347080); note: test concentration not given here
condition_label: A549 miR-34 inducible, Hoechst nuclei count, 48 h; active compounds read low; cell number ratio, induced over uninduced
measurement_label: fold change
Lab note: jot the number down without any unit.

Exercise: Specify measured fold change for O=C(Nc1cccc(-c2nn[nH]n2)c1)c1cccc(F)c1 .
Solution: 0.949

Exercise: Specify measured fold change for NC[C@@H]1O[C@H](O[C@H]2[C@@H](O)[C@H](O[C@@H]3[C@@H](O)[C@H](N)C[C@H](N)[C@H]3OC3O[C@H](CO)[C@@H](O)[C@H](O)[C@H]3N)O[C@@H]2CO)[C@H](N)[C@@H](O)[C@@H]1O (stereo partly specified) .
Solution: 0.833

Exercise: Specify measured fold change for O=c1[nH]c(=S)[nH]c(-c2ccccc2)c1Cc1c(O)ccc2ccccc12 .
Solution: 0.946

Exercise: Specify measured fold change for Cc1ccc(C(=O)N2CCC(Cc3ccccc3)CC2)cc1 .
Solution: 0.922

Exercise: Specify measured fold change for CCCC(NC(=O)C(C#N)=Cc1cccc(Br)n1)c1ccccc1 (stereo unspecified) .
Solution: 0.929

Exercise: Specify measured fold change for CN1[C@@H]2CC(OC(=O)C(CO)c3ccccc3)C[C@H]1[C@@H]1O[C@H]12 (stereo partly specified) .
Solution: 0.946
